Assay: Clearance in Sprague-Dawley rat at 1 mg/kg, iv
Format: ADME, organism-based
Parameters: dose 1 mg/kg, route intravenous
Details: in vivo
Quantity: clearance (mL/min/kg)

{"Structure String": "C[C@@H]1[C@](C)(c2ccccc2)[C@]1(NS(=O)(=O)N1CCn2c(nc3cc(F)ccc32)C1)C(=O)O", "Unit Annotation": "mL/min/kg", "clearance": 10}

(A) C[C@@H]1CN(S(=O)(=O)N[C@@]2(C(=O)O)[C@H](C)[C@]2(C)c2ccccc2)CCN1c1cc(C(F)F)on1
(B) C[C@@H]1[C@](C)(c2ccccc2)[C@]1(NS(=O)(=O)N1CCc2c(nc3cc(F)ccn23)C1)C(=O)O
(C) C[C@@H]1CN(S(=O)(=O)N[C@@]2(C(=O)O)[C@H](C)[C@]2(C)c2ccccc2)CCN1c1ccc(C#N)s1
input: Number of compounds to sort: 3. Sort criterion: clearance, ascending. Give the order by naming the labels one after another as requested.
output: B, C, A

###

Biological target: Cytochrome P450 1A2 (Homo sapiens)
Sequence (P05177 whole entry): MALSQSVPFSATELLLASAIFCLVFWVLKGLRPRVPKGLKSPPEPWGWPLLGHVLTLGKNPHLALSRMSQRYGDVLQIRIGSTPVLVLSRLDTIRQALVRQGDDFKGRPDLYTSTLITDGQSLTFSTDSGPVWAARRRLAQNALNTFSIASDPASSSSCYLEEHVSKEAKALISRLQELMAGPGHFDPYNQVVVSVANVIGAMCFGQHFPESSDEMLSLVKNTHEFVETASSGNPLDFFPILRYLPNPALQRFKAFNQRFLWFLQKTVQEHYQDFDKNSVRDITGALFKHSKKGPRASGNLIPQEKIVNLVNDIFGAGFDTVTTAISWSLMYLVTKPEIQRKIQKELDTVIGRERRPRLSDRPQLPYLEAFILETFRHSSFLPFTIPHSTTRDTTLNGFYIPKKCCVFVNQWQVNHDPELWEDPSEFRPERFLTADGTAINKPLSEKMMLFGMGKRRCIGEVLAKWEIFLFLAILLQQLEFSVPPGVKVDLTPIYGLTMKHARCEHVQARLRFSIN
Test: Inhibition of CYP1A2 at up to 50 uM
Type: ADME

{"Structure String": "C[C@@H]1[C@](C)(c2ccccc2)[C@]1(NS(=O)(=O)N1CCn2c(nc3cc(F)ccc32)C1)C(=O)O", "inhibition (INH)": "Not Active"}
{"Structure String": "C[C@@H]1[C@](C)(c2ccccc2)[C@]1(NS(=O)(=O)N1CCc2c(nc3cc(F)ccn23)C1)C(=O)O", "inhibition (INH)": "Not Active"}
{"Structure String": "C[C@@H]1CN(S(=O)(=O)N[C@@]2(C(=O)O)[C@H](C)[C@]2(C)c2ccccc2)CCN1c1ccc(C#N)s1", "inhibition (INH)": "Not Active"}
{"Structure String": "C[C@@H]1CN(S(=O)(=O)N[C@@]2(C(=O)O)[C@H](C)[C@]2(C)c2ccccc2)CCN1c1cc(C(F)F)on1", "inhibition (INH)": "Not Active"}

###

Target: UniProt:P50281
Assay: Inhibition of human recombinant MMP14 after 60 mins by fluorescence plate reader
Quantity: IC50 (µM)

{"Molecule": "COc1ccc2c(c1)nc1n2CCN(S(=O)(=O)N[C@@]2(C(=O)O)[C@H](C)[C@@H]2c2ccccc2)C1", "Assayed Target": "UniProt:P50281", "Numeric Result": 4.3}

(a) C[C@@H]1[C@H](c2ccccc2)[C@]1(NS(=O)(=O)N1CCN(c2ccc(Cl)cc2)C(CO)C1)C(=O)O (mixture of isomers)
(b) C[C@@H]1[C@H](c2ccccc2)[C@]1(NS(=O)(=O)N1CCc2c(nn3cc(F)ccc23)C1)C(=O)O
input: Please indicate which entry, a or b , has the lower recorded IC50 value. Response format: the label of the selected entry.
output: b

###

Target: A disintegrin and metalloproteinase with thrombospondin motifs 5 (Homo sapiens, UniProt Q9UNA0)
Assay: Inhibition of human recombinant aggrecanase 2 after 150 mins by fluorescence plate reader
Quantity: IC50 (nM)

Sample answers from the record:
{"Compound": "C[C@@H]1CN(S(=O)(=O)N[C@@]2(C(=O)O)[C@H](C)[C@@H]2c2ccccc2)CCN1c1ccc(F)cc1", "Unit Annotation": "nM", "IC50": 180}
{"Compound": "Cc1ccc2c(c1)nc1n2CCN(S(=O)(=O)N[C@@]2(C(=O)O)[C@H](C)[C@@H]2c2ccccc2)C1", "Unit Annotation": "nM", "IC50": 320}
{"Compound": "C[C@@H]1[C@](C)(c2ccccc2)[C@]1(NS(=O)(=O)N1CCc2c(nc3cc(F)ccn23)C1)C(=O)O", "Unit Annotation": "nM", "IC50": 8.4}
{"Compound": "C[C@@H]1[C@H](c2ccccc2)[C@]1(NS(=O)(=O)N1CCN(c2ccc(Cl)cc2)CC1)C(=O)O", "Unit Annotation": "nM", "IC50": 87}
{"Compound": "C[C@@H]1CN(S(=O)(=O)N[C@@]2(C(=O)O)[C@H](C)[C@]2(C)c2ccccc2)CCN1c1ccc(C#N)s1", "Unit Annotation": "nM", "IC50": 29}

(a) C[C@@H]1[C@H](c2ccccc2)[C@]1(NS(=O)(=O)N1CCc2c(nc3cc(Cl)ccn23)C1)C(=O)O
(b) C[C@@H]1[C@H](c2ccccc2)[C@]1(NS(=O)(=O)N1CCN(c2ccc(Cl)cc2)C(CO)C1)C(=O)O (mixture of isomers)
input: Given the two records a and b , choose the one whose IC50 value is lower. Label of pick, please.
output: a
(a: 21 nM, b: 230 nM)

###

Target: Interstitial collagenase (Homo sapiens)
Sequence (P03956 whole entry): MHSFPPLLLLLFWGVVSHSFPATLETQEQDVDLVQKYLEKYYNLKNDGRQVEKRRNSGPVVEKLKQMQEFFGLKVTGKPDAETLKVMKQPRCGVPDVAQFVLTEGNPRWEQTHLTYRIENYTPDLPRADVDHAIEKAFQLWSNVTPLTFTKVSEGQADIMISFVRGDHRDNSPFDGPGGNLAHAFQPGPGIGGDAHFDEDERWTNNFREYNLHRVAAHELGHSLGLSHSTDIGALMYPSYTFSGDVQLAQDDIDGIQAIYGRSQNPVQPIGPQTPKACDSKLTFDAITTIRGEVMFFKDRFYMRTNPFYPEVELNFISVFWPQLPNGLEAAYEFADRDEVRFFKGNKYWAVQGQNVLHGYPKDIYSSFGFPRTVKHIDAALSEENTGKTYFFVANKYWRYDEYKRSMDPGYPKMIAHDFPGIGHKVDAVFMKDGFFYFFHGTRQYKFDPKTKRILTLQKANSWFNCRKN
Assay: Inhibition of human recombinant MMP1 after 60 mins by fluorescence plate reader
pIC50: −log10 of the molar value.
Measured pIC50, listed per entry for reference.

{"Structure String": "C[C@@H]1[C@H](c2ccccc2)[C@]1(NS(=O)(=O)N1CCn2c(nc3ccccc32)C1)C(=O)O", "pIC50": "< 5.00"}

Then there is this compound:
input: Consider the compound shown here: COc1cnn(-c2ccc(S(=O)(=O)N[C@@]3(C(=O)O)[C@H](C)[C@@H]3c3ccccc3)s2)c1 What is its recorded pIC50?
output: 7.48

###

In this section, each of the molecules is paired with its reported IC50.
Molecular target: Disintegrin and metalloproteinase domain-containing protein 17 (Homo sapiens)
Sequence (P78536 whole entry, the tested form may be a part): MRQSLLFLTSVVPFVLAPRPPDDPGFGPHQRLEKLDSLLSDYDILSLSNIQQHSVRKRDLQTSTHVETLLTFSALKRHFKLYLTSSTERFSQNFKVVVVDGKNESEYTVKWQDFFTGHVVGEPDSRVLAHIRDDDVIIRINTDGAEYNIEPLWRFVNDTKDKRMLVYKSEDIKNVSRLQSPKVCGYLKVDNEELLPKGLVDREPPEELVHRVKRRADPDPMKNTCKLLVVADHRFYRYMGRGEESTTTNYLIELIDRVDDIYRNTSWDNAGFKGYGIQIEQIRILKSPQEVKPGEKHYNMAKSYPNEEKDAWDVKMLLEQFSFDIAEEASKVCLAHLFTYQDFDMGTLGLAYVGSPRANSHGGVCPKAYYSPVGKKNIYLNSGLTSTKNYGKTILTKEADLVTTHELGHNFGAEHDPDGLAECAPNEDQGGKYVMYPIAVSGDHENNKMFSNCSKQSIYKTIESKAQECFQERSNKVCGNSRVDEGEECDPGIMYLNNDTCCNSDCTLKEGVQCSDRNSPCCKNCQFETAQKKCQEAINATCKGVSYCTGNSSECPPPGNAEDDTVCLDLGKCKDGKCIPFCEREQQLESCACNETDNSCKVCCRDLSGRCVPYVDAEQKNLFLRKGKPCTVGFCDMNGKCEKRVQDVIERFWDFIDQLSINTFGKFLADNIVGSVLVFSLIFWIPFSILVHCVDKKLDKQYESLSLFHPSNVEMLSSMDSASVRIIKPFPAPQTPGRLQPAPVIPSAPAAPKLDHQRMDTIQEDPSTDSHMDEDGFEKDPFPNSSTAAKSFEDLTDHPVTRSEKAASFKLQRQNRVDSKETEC
Assay: Inhibition of human recombinant TACE after 60 mins by fluorescence plate reader

{"Structure String": "C[C@@H]1[C@H](c2ccccc2)[C@]1(NS(=O)(=O)N1CCn2c(nc3cc(F)ccc32)C1)C(=O)O", "Assayed Target": "Disintegrin and metalloproteinase domain-containing protein 17 (Homo sapiens)", "Quantity": "IC50", "Result": "> 10 µM"}
{"Structure String": "C[C@@H]1[C@H](c2ccccc2)[C@]1(NS(=O)(=O)N1CCN(c2ccc(Cl)cc2)CC1)C(=O)O", "Assayed Target": "Disintegrin and metalloproteinase domain-containing protein 17 (Homo sapiens)", "Quantity": "IC50", "Result": "> 10 µM"}
{"Structure String": "C[C@@H]1[C@H](c2ccccc2)[C@]1(NS(=O)(=O)c1ccc(-c2ccc(Cl)cc2)s1)C(=O)O", "Assayed Target": "Disintegrin and metalloproteinase domain-containing protein 17 (Homo sapiens)", "Quantity": "IC50", "Result": "2.7 µM"}
{"Structure String": "C[C@@H]1CN(S(=O)(=O)N[C@@]2(C(=O)O)[C@H](C)[C@@H]2c2ccccc2)CCN1c1ccc(Cl)cc1", "Assayed Target": "Disintegrin and metalloproteinase domain-containing protein 17 (Homo sapiens)", "Quantity": "IC50", "Result": "> 10 µM"}
{"Structure String": "C[C@@H]1[C@](C)(c2ccccc2)[C@]1(NS(=O)(=O)N1CCn2c(nc3cc(F)ccc32)C1)C(=O)O", "Assayed Target": "Disintegrin and metalloproteinase domain-containing protein 17 (Homo sapiens)", "Quantity": "IC50", "Result": "> 10 µM"}
{"Structure String": "C[C@@H]1[C@H](c2ccccc2)[C@]1(NS(=O)(=O)N1CCn2c(nc3ccccc32)C1)C(=O)O", "Assayed Target": "Disintegrin and metalloproteinase domain-containing protein 17 (Homo sapiens)", "Quantity": "IC50", "Result": "> 10 µM"}
{"Structure String": "C[C@@H]1[C@](C)(c2ccccc2)[C@]1(NS(=O)(=O)N1CCc2c(nc3cc(F)ccn23)C1)C(=O)O", "Assayed Target": "Disintegrin and metalloproteinase domain-containing protein 17 (Homo sapiens)", "Quantity": "IC50", "Result": "> 10 µM"}
{"Structure String": "C[C@@H]1CN(S(=O)(=O)N[C@@]2(C(=O)O)[C@H](C)[C@@H]2c2ccccc2)CCN1c1ccc(C#N)s1", "Assayed Target": "Disintegrin and metalloproteinase domain-containing protein 17 (Homo sapiens)", "Quantity": "IC50", "Result": "> 10 µM"}

# context switch: different molecule, same IC50
input: Which measured IC50 value corresponds to C[C@@H]1[C@H](c2ccccc2)[C@]1(NS(=O)(=O)c1cc2[nH]c3cc(F)ccc3c2s1)C(=O)O ?
output: 1.1 µM

###

Target: A disintegrin and metalloproteinase with thrombospondin motifs 5 (Homo sapiens, UniProt Q9UNA0)
Sequence (Q9UNA0 whole entry): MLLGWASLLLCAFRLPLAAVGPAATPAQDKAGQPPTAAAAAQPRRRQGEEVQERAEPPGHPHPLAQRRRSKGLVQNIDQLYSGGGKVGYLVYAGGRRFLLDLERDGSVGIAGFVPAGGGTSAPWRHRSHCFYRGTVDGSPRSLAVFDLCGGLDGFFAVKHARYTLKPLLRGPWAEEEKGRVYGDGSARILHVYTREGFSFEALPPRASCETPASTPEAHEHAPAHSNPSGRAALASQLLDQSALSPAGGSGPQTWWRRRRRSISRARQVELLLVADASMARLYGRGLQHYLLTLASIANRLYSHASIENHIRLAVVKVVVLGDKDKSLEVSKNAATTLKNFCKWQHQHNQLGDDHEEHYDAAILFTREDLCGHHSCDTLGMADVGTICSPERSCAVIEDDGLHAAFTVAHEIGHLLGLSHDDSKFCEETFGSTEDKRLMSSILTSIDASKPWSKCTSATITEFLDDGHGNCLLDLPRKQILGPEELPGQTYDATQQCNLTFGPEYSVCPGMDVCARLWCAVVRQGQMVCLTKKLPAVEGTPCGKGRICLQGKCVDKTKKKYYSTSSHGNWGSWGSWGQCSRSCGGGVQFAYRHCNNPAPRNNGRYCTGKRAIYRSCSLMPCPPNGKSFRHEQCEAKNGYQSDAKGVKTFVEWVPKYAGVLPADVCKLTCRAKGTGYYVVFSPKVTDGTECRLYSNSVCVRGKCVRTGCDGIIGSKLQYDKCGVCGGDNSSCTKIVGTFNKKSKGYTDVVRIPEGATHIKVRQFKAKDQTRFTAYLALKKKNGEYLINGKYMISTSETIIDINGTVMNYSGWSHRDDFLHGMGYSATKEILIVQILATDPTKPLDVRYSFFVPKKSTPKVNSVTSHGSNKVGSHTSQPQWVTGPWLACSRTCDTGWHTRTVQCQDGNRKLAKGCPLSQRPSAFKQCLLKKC
Experiment: Inhibition of human recombinant aggrecanase 2 after 150 mins by fluorescence plate reader
pIC50: −log10 of the molar value.
Quantity: pIC50

Examples with their reported pIC50 follow.
{"Structure String": "C[C@@H]1[C@H](c2ccccc2)[C@]1(NS(=O)(=O)N1CCn2c(nc3cc(F)ccc32)C1)C(=O)O", "pIC50": 7.70}
{"Structure String": "C[C@@H]1[C@H](c2ccccc2)[C@]1(NS(=O)(=O)N1CCn2c(cc3cc(Cl)ccc32)C1)C(=O)O", "pIC50": 7.41}
{"Structure String": "C[C@@H]1[C@H](c2ccccc2)[C@]1(NS(=O)(=O)N1CCc2c(nn3cc(F)ccc23)C1)C(=O)O", "pIC50": 8.07}

(a) C[C@@H]1[C@H](c2ccccc2)[C@]1(NS(=O)(=O)N1CCN(c2ccc(Cl)cc2)C(C)(C)C1)C(=O)O
(b) C[C@@H]1CN(S(=O)(=O)N[C@@]2(C(=O)O)[C@H](C)[C@@H]2c2ccccc2)CCN1c1ccc(C#N)s1
input: Could you determine which record has the numerically smaller pIC50? Candidates: a and b Kindly state the label of the option you pick.
output: a
